system: glucose-6-phosphate dehydrogenase-6-phosphogluconolactonase (Plasmodium falciparum 3D7)
test method notes: PfG6PD enzyme inhibitors, kinetic NADPH readout, dose response, orthogonal assay, biochemical, kinetic NADPH detection (AID 540269)
condition summary: purified PfG6PD-6PGL
Calls of active or inactive are those of the source. The rule behind the calls is not given here.
Assign a class; possible classes are YES for active, NO for inactive

Clc1cccc(Cl)c1CNc1ccc(N2CCCC2)cc1 : YES
CC(CNc1ccccc1O)C(=O)O (stereo not given) : NO
C/C(Cn1nnc([N+](=O)[O-])n1)=N\NC(=O)c1ccc(O)cc1 : NO
O=C(O)CSc1cc(NS(=O)(=O)c2ccc(Cl)cc2)c2ccccc2c1O : YES
CCC(C)c1ccccc1OCCn1ccnc1 (stereo not given) : NO
CC1=C(O)C(=O)C=C2C1=CC=C1C2(C)CCC2(C)C3CC(C)(C(=O)O)CCC3(C)CCC12C (stereo not given) : YES
O=C(Nc1nc(-c2ccncc2)cs1)C1COc2ccccc2O1 (stereo not given) : YES
COc1cc(-c2nnc3n2N=C(c2ccccc2)CS3)cc(OC)c1OC : NO
C=CCOc1ccc(CNc2ccc3[nH]c(=O)[nH]c3c2)cc1OC : NO
Cc1ccc(-c2nc(N)s[n+]2-c2ccccc2)cc1 : NO

*Q* Could you check what this test reported for Clc1ccc2nc(-c3ccc4c(c3)OCO4)cn2c1 ?
*A* YES

*Q* Could you check what this test reported for Fc1cccc(Cl)c1CNc1ccc(N2CCCC2)cc1 ?
*A* NO

*Q* Could you check what this test reported for CC(Cc1ccc(O)c(O)c1)C(C)Cc1ccc(O)c(O)c1 (stereo not given) ?
*A* YES

*Q* Could you check what this test reported for Nn1c(SCC(=O)Nc2cccnc2Cl)nnc1-c1ccccc1 ?
*A* NO

*Q* Could you check what this test reported for CCC(=O)OCOc1ccc(/C=C2/CCC(CN(C)C)C2=O)cc1 (stereo not given) ?
*A* YES

*Q* Could you check what this test reported for Cc1ccc(S(=O)(=O)N(C(=O)c2ccncc2)c2ccc(OC(=O)c3ccncc3)c3ccccc23)cc1 ?
*A* YES

*Q* Could you check what this test reported for COc1cc(N(C)C)ccc1C=c1c2ccccc2n2c1cc(-c1ccccc1)[n+]2C ?
*A* NO

*Q* Could you check what this test reported for COc1ccc(CN(C)S(=O)(=O)c2nnc(NC(=O)c3ccc(C)cc3)s2)cc1OC ?
*A* YES

*Q* Could you check what this test reported for Cc1ccc(S(=O)(=O)SC/C=C/CSS(=O)(=O)c2ccc(C)cc2)cc1 ?
*A* YES

*Q* Could you check what this test reported for O=C(CN1CCN(c2ccc(O)cc2)CC1)Nc1cc(S(=O)(=O)N2CCOCC2)ccc1Cl ?
*A* NO

*Q* Could you check what this test reported for NCCc1cc(O)c(O)cc1O ?
*A* YES

====

system: glucose-6-phosphate dehydrogenase-6-phosphogluconolactonase (Plasmodium falciparum 3D7)
test method notes: PfG6PD enzyme inhibitors, kinetic NADPH readout, dose response, orthogonal assay, biochemical, kinetic NADPH detection (AID 540269)
condition summary: purified PfG6PD-6PGL
The source made the active and inactive calls. The rule behind the calls is not given here.
Assign a class; possible classes are active, inactive

Here are 2 molecules together with their reported answers.
CC1(C)Cc2c(sc3nc4n(-c5ccccc5)c(=O)c(CCC(=O)O)nn4c(=O)c23)CO1 : active
c1nc(SSc2ncnc3nc[nH]c23)c2[nH]cnc2n1 : active

*Q* Could you check what this test reported for CC(=O)Nc1cc(OC(C)=O)c2nonc2c1OC(C)=O ?
*A* inactive

*Q* Could you check what this test reported for Cc1ccc(NC(=O)c2cc(C)n(-c3ccccc3)c2C)cc1 ?
*A* inactive

*Q* Could you check what this test reported for CCn1c(SCC(=O)Nc2ccccc2OC)nnc1-c1cnccn1 ?
*A* inactive

*Q* Could you check what this test reported for Cc1ccsc1/C=N/NC(=O)c1cccc(S(=O)(=O)Nc2ccccc2Cl)c1 ?
*A* inactive

*Q* Could you check what this test reported for Nc1cc(N)c(OCC(F)(F)F)cc1OCC(F)(F)F ?
*A* inactive

*Q* Could you check what this test reported for O=c1c2ccccc2sn1-c1ccc(S(=O)(=O)N2CCCC2)cc1 ?
*A* active

*Q* Could you check what this test reported for O=C(Cn1sc2ccccc2c1=O)Nc1ccccc1 ?
*A* active

*Q* Could you check what this test reported for Cc1ccc(/C=C/C(=O)NCCc2cccc(Cl)c2)o1 ?
*A* inactive

*Q* Could you check what this test reported for COc1cccc(/C=N/NC(=O)c2c(C)nc3ccc(Br)cn23)c1 ?
*A* active

*Q* Could you check what this test reported for CC1(C)CC2(CC(c3ccccc3F)c3ccc(O)c(O)c3O2)NC(=S)N1 (stereo not drawn) ?
*A* active

*Q* Could you check what this test reported for CCn1c2ccccc2c2nc3cc(S(=O)(=O)N4CCOCC4)ccc3nc21 ?
*A* inactive

*Q* Could you check what this test reported for COc1ccc(NC(C)C(=O)N/N=C/c2cc(Br)ccc2OC)cc1 (stereo not drawn) ?
*A* inactive

*Q* Could you check what this test reported for CC1=NOC(=O)/C1=C\c1ccc(-c2ccccc2Br)o1 ?
*A* inactive

*Q* Could you check what this test reported for Cc1cc(C)c2c(=O)n(CC(=O)Nc3cccc(Cl)c3C)sc2n1 ?
*A* active

*Q* Could you check what this test reported for CCSc1nc2cc(S(=O)(=O)N3CCOCC3)ccc2o1 ?
*A* inactive

*Q* Could you check what this test reported for O=C1Nc2cc(C(=O)NCCCN3CCCC3)ccc2S/C1=C/c1cccc(Cl)c1 ?
*A* active

*Q* Could you check what this test reported for Oc1cc(CNCc2ccccc2)c(O)cc1CNCc1ccccc1 ?
*A* active

*Q* Could you check what this test reported for CN(C)c1ncc(C2=C(Cl)C(=O)C(N3CCCC3)=C(Cl)C2=O)s1 ?
*A* active

*Q* Could you check what this test reported for Cc1cccc(OCC(=O)NCC(=O)N/N=C/c2ccccc2)c1 ?
*A* inactive

*Q* Could you check what this test reported for CC(=O)OCCCNc1cc(Sc2nc3ccccc3s2)c2nonc2c1[N+](=O)[O-] ?
*A* active

*Q* Could you check what this test reported for O=C1C=CC(=O)N1c1ccc(N2CCCCC2)cc1 ?
*A* active
